Measured IC50 by item
# testedSystem: T1, human DLL4, full length, on cells (human, UniProt Q9NR61 27-685)
# T1 construct: also called huDLL4 cells; human DLL4-293G
# T1 sequence (Q9NR61 27-685 limits assumed): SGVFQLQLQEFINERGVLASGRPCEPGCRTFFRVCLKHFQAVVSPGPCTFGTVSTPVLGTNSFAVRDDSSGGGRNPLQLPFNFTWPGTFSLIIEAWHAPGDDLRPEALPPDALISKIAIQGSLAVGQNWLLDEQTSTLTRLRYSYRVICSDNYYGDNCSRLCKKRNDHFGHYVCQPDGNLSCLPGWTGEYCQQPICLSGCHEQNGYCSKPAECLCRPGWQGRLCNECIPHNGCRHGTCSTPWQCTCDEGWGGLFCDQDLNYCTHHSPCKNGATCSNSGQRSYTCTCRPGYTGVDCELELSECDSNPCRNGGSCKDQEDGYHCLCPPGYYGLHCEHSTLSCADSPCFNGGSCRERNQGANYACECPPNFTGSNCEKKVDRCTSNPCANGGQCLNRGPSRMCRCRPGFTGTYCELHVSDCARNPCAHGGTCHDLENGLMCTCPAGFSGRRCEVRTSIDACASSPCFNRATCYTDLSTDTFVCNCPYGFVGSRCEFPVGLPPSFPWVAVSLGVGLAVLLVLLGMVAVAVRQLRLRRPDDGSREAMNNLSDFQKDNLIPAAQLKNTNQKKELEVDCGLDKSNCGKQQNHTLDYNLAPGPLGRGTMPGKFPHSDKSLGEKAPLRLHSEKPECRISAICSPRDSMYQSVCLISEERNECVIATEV
# testMethodNotes: competition FACS: huNotch-1 to DLL4 cells
Express it in nM; write the number only.

# example entries with known answers
{"binder": "14A11 chimeric antibody (antibody, human IgG1, V domains shown, also called Chimera of 14A11) VH: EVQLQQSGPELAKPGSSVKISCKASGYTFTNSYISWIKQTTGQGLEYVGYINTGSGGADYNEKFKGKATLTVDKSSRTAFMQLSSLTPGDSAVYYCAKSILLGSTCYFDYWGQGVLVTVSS VL: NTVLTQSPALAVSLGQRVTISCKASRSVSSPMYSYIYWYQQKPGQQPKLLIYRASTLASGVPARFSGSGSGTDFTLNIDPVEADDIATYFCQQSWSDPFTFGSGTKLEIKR", "IC50 [nM]": 4.03}
{"binder": "1A11 chimeric antibody (antibody, human IgG1, V domains shown, also called Chimera of 1A11; 1A11 (chimera)) VH: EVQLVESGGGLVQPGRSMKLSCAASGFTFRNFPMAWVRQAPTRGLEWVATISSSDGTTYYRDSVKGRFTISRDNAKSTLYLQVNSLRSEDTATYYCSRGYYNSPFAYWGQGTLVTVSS VL: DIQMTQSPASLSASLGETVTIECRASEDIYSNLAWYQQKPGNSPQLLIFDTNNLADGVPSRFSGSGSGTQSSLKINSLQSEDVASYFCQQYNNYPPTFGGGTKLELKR", "IC50 [nM]": 2.34}

Attention now shifts to the item below.
The binder listed as 38H12 chimeric antibody (antibody, human IgG1, V domains shown, also called Chimera of 38H12) VH: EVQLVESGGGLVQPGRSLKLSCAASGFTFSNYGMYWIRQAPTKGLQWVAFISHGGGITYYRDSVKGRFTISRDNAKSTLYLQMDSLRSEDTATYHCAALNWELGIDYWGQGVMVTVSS VL: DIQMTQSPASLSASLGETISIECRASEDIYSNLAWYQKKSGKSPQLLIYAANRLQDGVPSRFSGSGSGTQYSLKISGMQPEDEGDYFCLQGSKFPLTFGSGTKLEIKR has a reported IC50 of 1.44
